Tested on: T4 lymphocytes (CEM cell line)
Experiment: Toxicity control: growth inhibition of uninfected T4 lymphocytes (CEM cell line), XTT
Conditions: Homo sapiens, CCRF-CEM, 144 h, read-out: 50% inhibitory concentration (IC50)
pIC50: −log10 of the molar value.
experimental_endpoint: pIC50

[[record]]
sample_smiles = "O=C(O)[C@@H](S)[C@@H](S)C(=O)O"
target_or_system = "T4 lymphocytes (CEM cell line)"
experimental_endpoint = "pIC50"
recorded_value = "< 2.85"

